Target: TNF receptor (immobilized, control)
Assay: SPR (Biacore 3000), peptide injected over immobilized TNF receptor (control)
Bridge positions count the residues as written; N and C are the ends. Ends that are not written are not given here.
observed property: Kd

- YCLVWKYADAGCY (disulfide 2-12 (inferred)) [B1-S22-ALG (derived from erbB1)]: > 1000 µM
- YCPIWKFPDEECY (disulfide 2-12 (inferred)) [B2-S22-APE (derived from erbB2)]: > 1000 µM
- YCFIFKYADPDCY (disulfide 2-12 (inferred)) [B4-S22-AFD (derived from erbB4)]: > 1000 µM
- YCPIYKYPDVQCY (disulfide 2-12 (inferred)) [B3-S22-APQ (derived from erbB3)]: > 1000 µM

Pending binder:
Recorded Kd for YCFPDEEGACY (disulfide 2-10 (inferred)) [B2-S22-AFA (derived from erbB2)] , please?
> 1000 µM
